Kindly supply the reported abundance fitness values for the records listed here.
B1: Homeobox expressed in ES cells 1, residues 110 to 165; numbered along this chain, Q9UBX0 (parent)
chain: RPRTAFTQNQIEVLENVFRVNCYPGIDIREDLAQKLNLEEDRIQIWFQNRRAKLKR

Variants of: B1
assay.overview: abundance fitness (aPCA) (normalised: wild type 0, dead -1); higher = more abundant; growth selection in yeast, the domain comes from the species named
measurement.parameters: Homo sapiens
Numbers only.

change: P24D
observed.measurement: -0.606

For each entry beneath this line, provide reported abundance fitness.
1. E12L
2. A5Q

1. -0.236
2. 0.384
